assay: Components of the Cytosolic LPS Sensing Pathway: Gene Identification via Genome-wide siRNA Screen; settings: RAW264.7 macrophages, IL-1a HTRF, actives lie on both sides, screened at 100 nM (by protocol), cells primed 5 h with Pam3CSK4 first;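 further: robust z of the log signal after scaling to non-targeting control siRNA wells of the plate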
Hit rate of the full screen: of about 53,000 sequences, about 3,700 (7%) were called active. The full list was thinned out, with actives kept by preference.
Observed Property: z-score

Exercise: Answer with the recorded z-score of CCUACCAUAGCAACACUAUTT against Kcna2 only.
Solution: 3.14 (active)

Exercise: Indicate its recorded z-score; the sequence in question is GGCUGAGUGAAUUGGGAAUTT against Olfr419
Solution: 1.28 (inactive)

Exercise: Please report the measured z-score for GGGAUGUUCUUCAAUCCUGTT against Hecw2
Solution: 0.0154 (inactive)

Exercise: Find the measured z-score of GGACCUAUCAACUGAGUUUTT against Hrc and report it.
Solution: 1.06 (inactive)

Exercise: Tell me measured z-score for GGCACUGAUAAGAAGUACCTT against Dnah1 please.
Solution: 0.772 (inactive)

Exercise: Input GGAACAGAUAACAUUAUGGTT against Cpeb3 , output reported z-score.
Solution: 2.79 (active)

Exercise: Quick one: give measured z-score for GGAUUAAAGGCCAUAAGGATT against Zfp747
Solution: -0.813 (inactive)

Exercise: Quote z-score reported for GGGCCUUCAAAACGAGAAGTT against Cyp4f39 please.
Solution: 0.339 (inactive)

Exercise: # return recorded z-score for entry GGCAGGACGAACAUGGCUATT against Hspb1
Solution: 1.2 (inactive)

Exercise: Assign z-score to the following record: GGAAAAAGAGGCCAAAAAGTT against Arid4a
Solution: -0.221 (inactive)

Exercise: Look up and report measured z-score for this entry: CCAUAGUGUAUCUGACUGGTT against Iqsec1
Solution: -0.135 (inactive)

Exercise: Please give measured z-score of the following entry: CCUAAGAACCCUGAUCCUATT against A030005L19Rik
Solution: 1.08 (inactive)

* * *

test: Components of the Cytosolic LPS Sensing Pathway: Gene Identification via Genome-wide siRNA Screen; conditions: RAW264.7 macrophages, IL-1a HTRF, actives lie on both sides, screened at 100 nM (by protocol), cells primed 5 h with Pam3CSK4 first;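 further: robust z of the log signal after scaling to non-targeting control siRNA wells of the plate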
The campaign covered roughly 53,000 sequences. About 3,700 (7%) were called active. The sample as a whole holds a higher share of actives than the screen did.
Observed Property: z-score
Please reply with the value in numeric form only.

Worked examples follow.
CCUGAAAAGCUAUUGGGUATT against Baat ... -0.196
CCUUUGAACCUCUAACUUUTT against Xpnpep1 ... 3.62
GGAUUUGACCAGUAUAAGUTT against Ptgs2 ... -1.05
GCUGCACAAGUGAUAUCCGTT against Trim26 ... 0.397

Exercise: Note z-score for the sequence shown: UAGUCAUUGGGAUUCCUUCTT against Olfr112
Solution: 2.98

Exercise: Provide one value: measured z-score of GGAGGAAAAACAGUGCAGATT against Smchd1
Solution: -1.54

Exercise: Determine from records and report z-score for GGAUGCCUUCUAUACACUATT against Hras
Solution: -1.33

* * *

assay: Components of the Cytosolic LPS Sensing Pathway: Gene Identification via Genome-wide siRNA Screen; conditions: RAW264.7 macrophages, IL-1a HTRF, actives lie on both sides, screened at 100 nM (by protocol), cells primed 5 h with Pam3CSK4 first;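 further: robust z of the log signal after scaling to non-targeting control siRNA wells of the plate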
Out of some 53,000 sequences screened, about 3,700 (7%) were called active. Many of the other results were omitted from the sample, so actives are more common in it than they were.
Below, each entry is listed with its recorded z-score.

# count of solved cases: 5
GGUUCCAUAACCUGUGUCATT against Fbxo28 ... 0.272 (inactive)
GCCGUUCAUUUCAACCGUGTT against Wdr5 ... -0.0339 (inactive)
GGCCCAAGGAUCAAUUUAUTT against Zup1 ... 0.914 (inactive)
GGCGGUCUUUAAGAUGCUCTT against Ubl7 ... 2.12 (active)
GGCACUGAAGGAGAACCUGTT against Rbbp8nl ... -0.336 (inactive)

Exercise: Return z-score for the following sequence: GGGAAUUUACUGCAGGAUATT against Itln1
Solution: 2.72 (active)

Exercise: Look up z-score of GCGACAGAGGAAGCUUGUUTT against Mak16 and report it.
Solution: 0.634 (inactive)

Exercise: Look up z-score of CCAUCCCGUUCACUAGAGATT against Mypn and report it.
Solution: -1.73 (inactive)
